Collected TS MDAI hCMEC values appear next to each entry.
- Test system: hCMEC
- test.details: TS MDAI hCMEC (Table S2)
- Format: cell-based, human
- Design: scale not given here
- experimental.conditions: Table S2
Where a SMILES comes first, the peptide text is derived from it.
Output spec: single numeric token, no unit.

These solved cases illustrate the format of a correct answer.
[
  {
    "compound": "CN1C2CCCC1CC(NC(=O)c1nn(C)c3ccccc13)C2 (stereo not drawn)",
    "TS MDAI hCMEC": 0.28
  },
  {
    "compound": "COC(=O)[C@H](Cc1ccccc1)NC(=O)[C@@H](N)CC(=O)O [Aspartame] (HELM PEPTIDE1{D.F.[CO[*:1]]}$$$$V2.0)",
    "TS MDAI hCMEC": 1.65
  },
  {
    "compound": "CN(C)CCOC(C)(c1ccccc1)c1ccccn1 (stereo not drawn)",
    "TS MDAI hCMEC": 0.46
  }
]

# query: TS MDAI hCMEC of entry CCCCN1CCCCC1C(=O)Nc1c(C)cccc1C [Bupivacaine (S), Bupivacaine]
0.24

# query: TS MDAI hCMEC of entry CC(NC(C)(C)C)C(=O)c1cccc(Cl)c1 (stereo not drawn)
0.09

# query: TS MDAI hCMEC of entry "O=C1c2cccc3c2[C@H](CCC3)CN1[C@@H]1CN2CCC1CC2"
0.35

# query: TS MDAI hCMEC of entry OC(CCN1CCCCC1)(c1ccccc1)C1CC2C=CC1C2 (stereo not drawn)
0.26

# query: TS MDAI hCMEC of entry COCCOC(=O)C1=C(C)NC(C)=C(C(=O)OC(C)C)C1c1cccc([N+](=O)[O-])c1 (stereo not drawn)
1.25

# query: TS MDAI hCMEC of entry Cc1cccc(C(C)c2cnc[nH]2)c1C (stereo not drawn)
0.96

# query: TS MDAI hCMEC of entry C[N@+]1(CC2CC2)CC[C@]23c4c5ccc(O)c4O[C@H]2C(=O)CC[C@@]3(O)[C@H]1C5 [Methylnaltrexone]
0.84

# query: TS MDAI hCMEC of entry "Cn1c(=O)[nH]c2ncn(C)c2c1=O"
0.93

---

- target: UniProtKB Q86VL8
- test.details: Concentration-dependent uptake (Michaelis-Menten) via MATE2K in HEK293 cells
- experimental.conditions: HEK293, 1 min, net uptake
result.type: MATE2K Vmax

[
  {
    "molecule": "Nc1ccn([C@H]2CC[C@@H](CO)O2)c(=O)n1",
    "target": "UniProtKB Q86VL8",
    "MATE2K Vmax": "linear"
  },
  {
    "molecule": "Cc1ncc(CO)c(CN)c1O",
    "target": "UniProtKB Q86VL8",
    "MATE2K Vmax": "989.5 pmol × mg protein^–1 × min^–1"
  },
  {
    "molecule": "CCN1CCCC1CNC(=O)c1cc(S(=O)(=O)CC)c(N)cc1OC (centres unmarked) [Amisulpride]",
    "target": "UniProtKB Q86VL8",
    "MATE2K Vmax": "710 pmol × mg protein^–1 × min^–1"
  },
  {
    "molecule": "C[N@+]1(CC2CC2)CC[C@]23c4c5ccc(O)c4O[C@H]2C(=O)CC[C@@]3(O)[C@H]1C5 [Methylnaltrexone]",
    "target": "UniProtKB Q86VL8",
    "MATE2K Vmax": "41.6 pmol × mg protein^–1 × min^–1"
  },
  {
    "molecule": "[H]/N=C(/N)N/C(=N/[H])NCCc1ccccc1",
    "target": "UniProtKB Q86VL8",
    "MATE2K Vmax": "1361 pmol × mg protein^–1 × min^–1"
  },
  {
    "molecule": "CC(CCc1ccc(O)cc1)NCCc1ccc(O)c(O)c1 (centres unmarked)",
    "target": "UniProtKB Q86VL8",
    "MATE2K Vmax": "493 pmol × mg protein^–1 × min^–1"
  },
  {
    "molecule": "CNC[C@H](O)c1ccc(O)c(O)c1 [Epinephrine]",
    "target": "UniProtKB Q86VL8",
    "MATE2K Vmax": "2968 pmol × mg protein^–1 × min^–1"
  },
  {
    "molecule": "CN(C)C(=O)Oc1cccc([N+](C)(C)C)c1",
    "target": "UniProtKB Q86VL8",
    "MATE2K Vmax": "3139 pmol × mg protein^–1 × min^–1"
  },
  {
    "molecule": "NCCc1ccc(O)c(O)c1",
    "target": "UniProtKB Q86VL8",
    "MATE2K Vmax": "1219 pmol × mg protein^–1 × min^–1"
  },
  {
    "molecule": "NC[C@H](O)c1ccc(O)c(O)c1 [Norepinephrine]",
    "target": "UniProtKB Q86VL8",
    "MATE2K Vmax": "673 pmol × mg protein^–1 × min^–1"
  }
]

# query: MATE2K Vmax of entry "NCCc1ccc(O)cc1"
2868 pmol × mg protein^–1 × min^–1

# query: MATE2K Vmax of entry "Cc1ncc(C[n+]2csc(CCO)c2C)c(N)n1"
109.2 pmol × mg protein^–1 × min^–1

# query: MATE2K Vmax of entry CN(C)CCc1c[nH]c2ccc(C[C@H]3COC(=O)N3)cc12 [Zolmitriptan (S), Zolmitriptan]
1662 pmol × mg protein^–1 × min^–1

# query: MATE2K Vmax of entry "Nc1nc(=O)n([C@@H]2CS[C@H](CO)O2)cc1F"
2634 pmol × mg protein^–1 × min^–1

# query: MATE2K Vmax of entry Cc1c(N)c(=O)n(-c2ccccc2)n1C [4-Aminoantipyrine]
linear

# query: MATE2K Vmax of entry CC(=O)OC(C)C[N+](C)(C)C (centres unmarked)
1240 pmol × mg protein^–1 × min^–1

# query: MATE2K Vmax of entry "C[C@H]1N=C(N(C)C)N=C(N)N1"
2814 pmol × mg protein^–1 × min^–1

# query: MATE2K Vmax of entry "CN[C@@H]1CCc2[nH]c3ccc(C(N)=O)cc3c2C1"
869 pmol × mg protein^–1 × min^–1

# query: MATE2K Vmax of entry "Cc1ncc(CO)c(CO)c1O"
593 pmol × mg protein^–1 × min^–1

---

- target: OCT2 (Homo sapiens)
- Sequence (O15244 whole entry): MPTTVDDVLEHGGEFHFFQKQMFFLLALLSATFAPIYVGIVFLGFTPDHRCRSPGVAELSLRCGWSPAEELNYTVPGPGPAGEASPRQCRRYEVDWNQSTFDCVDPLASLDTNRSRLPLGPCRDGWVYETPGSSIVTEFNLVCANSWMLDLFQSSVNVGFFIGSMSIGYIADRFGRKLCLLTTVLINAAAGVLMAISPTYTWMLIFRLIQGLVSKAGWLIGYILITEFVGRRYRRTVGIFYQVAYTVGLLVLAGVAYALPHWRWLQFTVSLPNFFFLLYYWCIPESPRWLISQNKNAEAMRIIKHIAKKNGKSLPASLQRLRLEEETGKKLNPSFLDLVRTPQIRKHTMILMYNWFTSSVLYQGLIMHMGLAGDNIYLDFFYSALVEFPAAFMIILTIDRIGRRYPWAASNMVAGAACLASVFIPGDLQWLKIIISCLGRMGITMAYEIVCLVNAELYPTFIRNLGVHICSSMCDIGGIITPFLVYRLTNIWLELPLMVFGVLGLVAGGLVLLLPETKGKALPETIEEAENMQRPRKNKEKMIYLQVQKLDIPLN
- test.details: Uptake in OCT2-overexpressing HEK293 cells (substrate yes/no)
- Type: cell-based
- Parameters: key: 1 = substrate; 0 = no substrate
- experimental.conditions: Table S4
result.type: OCT2 substrate*
Output spec: single numeric token, no unit.

[
  {
    "compound": "CN(C)CCc1c[nH]c2ccc(C[C@H]3COC(=O)N3)cc12 [Zolmitriptan (S), Zolmitriptan]",
    "OCT2 substrate*": 0
  },
  {
    "compound": "CN(C)CCc1c[nH]c2ccc(C[C@H]3COC(=O)N3)cc12 [Zolmitriptan (R), Zolmitriptan]",
    "OCT2 substrate*": 1
  },
  {
    "compound": "O=C1Cc2cc(CCN3CCN(c4nsc5ccccc45)CC3)c(Cl)cc2N1",
    "OCT2 substrate*": 0
  }
]

# query: OCT2 substrate* of entry CN(C)CCc1c[nH]c2ccc(C[C@H]3COC(=O)N3)cc12 [Zolmitriptan]
0

---

- target: MATE1 (Homo sapiens, UniProt Q96FL8)
- Sequence (Q96FL8 whole entry): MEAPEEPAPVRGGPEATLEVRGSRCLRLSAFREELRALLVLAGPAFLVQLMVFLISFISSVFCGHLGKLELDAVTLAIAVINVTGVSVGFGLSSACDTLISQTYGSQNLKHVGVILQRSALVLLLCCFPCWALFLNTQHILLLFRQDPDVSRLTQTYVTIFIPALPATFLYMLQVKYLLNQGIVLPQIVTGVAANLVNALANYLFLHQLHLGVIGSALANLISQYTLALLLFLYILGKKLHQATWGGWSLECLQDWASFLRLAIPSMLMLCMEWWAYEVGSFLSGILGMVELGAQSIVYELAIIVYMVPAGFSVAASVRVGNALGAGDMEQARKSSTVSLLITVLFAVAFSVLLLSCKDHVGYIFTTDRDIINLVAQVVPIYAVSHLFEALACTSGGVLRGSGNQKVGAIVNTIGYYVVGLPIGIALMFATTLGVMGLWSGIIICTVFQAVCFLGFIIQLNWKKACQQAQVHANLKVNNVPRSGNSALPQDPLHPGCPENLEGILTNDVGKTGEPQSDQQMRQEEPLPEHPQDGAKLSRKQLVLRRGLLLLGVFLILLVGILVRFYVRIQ
- test.details: Uptake ratio in MATE1-overexpressing HEK293 cells vs empty vector (2.5 μM, 1 min, HPLC-MS/MS)
- Format: cell-based
- experimental.conditions: fold uptake over empty vector, 2.5 μM, 1 min
Please assign no whenever MATE1 ratio is at or above 2, and yes whenever it is below.

Answered examples (3):
[
  {
    "molecule": "Nc1c(Br)cc(Br)cc1CN[C@H]1CC[C@H](O)CC1",
    "assigned.class": "yes"
  },
  {
    "molecule": "Cc1ncc(CO)c(C=O)c1O",
    "assigned.class": "yes"
  },
  {
    "molecule": "CNCc1ccc(CSCCN/C(=C/[N+](=O)[O-])NC)o1",
    "assigned.class": "no"
  }
]

Pending molecule:
Problem: For the molecule "C[C@H]1N=C(N(C)C)N=C(N)N1" , is MATE1 ratio under 2?
no

---

- target: MATE2K (Homo sapiens)
- Sequence (Q86VL8 1-566 isoform Q86VL8-3): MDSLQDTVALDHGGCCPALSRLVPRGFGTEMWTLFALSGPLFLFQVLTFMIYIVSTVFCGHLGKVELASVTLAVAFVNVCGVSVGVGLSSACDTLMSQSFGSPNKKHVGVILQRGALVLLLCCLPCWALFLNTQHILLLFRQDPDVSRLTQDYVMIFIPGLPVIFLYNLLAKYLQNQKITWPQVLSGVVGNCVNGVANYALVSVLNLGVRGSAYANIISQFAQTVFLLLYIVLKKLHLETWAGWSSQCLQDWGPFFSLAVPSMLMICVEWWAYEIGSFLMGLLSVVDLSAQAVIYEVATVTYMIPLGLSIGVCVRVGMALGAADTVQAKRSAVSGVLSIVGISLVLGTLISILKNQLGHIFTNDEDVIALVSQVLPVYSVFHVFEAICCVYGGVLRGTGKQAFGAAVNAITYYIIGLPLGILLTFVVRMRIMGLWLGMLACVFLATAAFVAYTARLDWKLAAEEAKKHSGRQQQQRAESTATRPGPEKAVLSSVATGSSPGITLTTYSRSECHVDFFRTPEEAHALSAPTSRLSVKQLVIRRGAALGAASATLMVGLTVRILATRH
- test.details: Uptake ratio in MATE2K-overexpressing HEK293 cells vs empty vector (2.5 μM, 1 min, HPLC-MS/MS)
- Assay type: cell-based
- experimental.conditions: fold uptake over empty vector, 2.5 μM, 1 min
Collected MATE2K ratio values appear next to each entry.
Output spec: single numeric token, no unit.

These solved cases illustrate the format of a correct answer.
[
  {
    "compound": "NCCCCN",
    "result": 0.48
  },
  {
    "compound": "Cc1cc(C(C)(C)C)c(O)c(C)c1CC1=NCCN1",
    "result": 2.29
  },
  {
    "compound": "COc1ccccc1OCC(O)CN1CCN(CC(=O)Nc2c(C)cccc2C)CC1 (centres unmarked)",
    "result": 1.30
  },
  {
    "compound": "N[C@@H]1CON=C1O [Cycloserine (D), Cycloserine]",
    "result": 1.14
  }
]

Next compound, MATE2K ratio to be filled in.
# query: MATE2K ratio of entry "O=C1CCc2ccc(OCCCCN3CCN(c4cccc(Cl)c4Cl)CC3)cc2N1"
1.26
